- target.under.test: PTP1B1-405 (Homo sapiens)
- Construct: PTP1B1-405 (the long form of PTP1B which contains the extended C-terminal segment); made in house; host or cells: Escherichia coli BL21 (DE3)-RIL
- Sequence (P18031 1-405): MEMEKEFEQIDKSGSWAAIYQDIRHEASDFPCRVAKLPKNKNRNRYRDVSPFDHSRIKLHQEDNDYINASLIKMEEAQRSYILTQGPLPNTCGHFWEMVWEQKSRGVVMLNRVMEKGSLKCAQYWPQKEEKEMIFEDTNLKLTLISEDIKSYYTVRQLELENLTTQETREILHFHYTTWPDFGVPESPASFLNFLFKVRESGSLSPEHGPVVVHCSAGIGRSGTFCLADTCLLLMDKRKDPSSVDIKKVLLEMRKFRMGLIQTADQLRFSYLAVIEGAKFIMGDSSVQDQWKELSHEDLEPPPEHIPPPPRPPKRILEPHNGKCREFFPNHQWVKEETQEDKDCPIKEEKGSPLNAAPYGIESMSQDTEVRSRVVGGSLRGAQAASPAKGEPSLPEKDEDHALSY
- method: PTP1B phosphatase activity assay, DiFMUP substrate, long form
- Assay type: biochemical
- test.parameters: no pre-incubation; read-out: IC50 for PTP1B1-405
reported.endpoint: pIC50
Reminder that pIC50 means the negative base-10 logarithm of the concentration expressed in mol/L.

Name the recorded pIC50 for COC(=O)CCC(C)C1CCC2C3C(O)CC4CC(NCCCCNCc5ccccn5)CCC4(C)C3CCC12C (stereo not shown) .
6.22
